Tested on: MCF7
TEST DETAILS: Cytotoxicity against human ER-positive MCF7 cells assessed as increase in cell proliferation at 12.5 to 100 uM incubated for 24 hrs
Type: cell-based
STATED CONDITIONS: mcf7, 24 h, dose 12.5-100 µM
PARAMETER: Activity

Need Activity of `COc1ccc(C(C)=O)c(O)c1` , thanks.
Non-Toxic

If you can, please state the reported Activity value of CCOC(=O)c1cc(O)c(O)c(O)c1 [ETHYLGALLATE] .
Non-Toxic

Could you tell me which Activity is on file for `C[C@@]12C[C@@]3(O)O[C@@H](O1)[C@]1(COC(=O)c4ccccc4)[C@H]3C[C@@]12O[C@@H]1O[C@H](CO)[C@@H](O)[C@H](O)[C@H]1O` ?
Non-Toxic
